Numbers sourced from ChEMBL document CHEMBL5154782.

Items are presented alongside their recorded IC50.
target: von Hippel-Lindau disease tumor suppressor/Epidermal growth factor receptor (Homo sapiens, UniProt P00533+P40337, L858R/T790M); test: Protac activity at VHL/EGFR L858R/T790M mutant (unknown origin) assessed as inhibition of EGFR incubated for 40 mins in presence of ATP by Kinase Glo luminescence assay
Sequence (P00533 25-1210 T790M/L858R limits assumed, stated change not applied): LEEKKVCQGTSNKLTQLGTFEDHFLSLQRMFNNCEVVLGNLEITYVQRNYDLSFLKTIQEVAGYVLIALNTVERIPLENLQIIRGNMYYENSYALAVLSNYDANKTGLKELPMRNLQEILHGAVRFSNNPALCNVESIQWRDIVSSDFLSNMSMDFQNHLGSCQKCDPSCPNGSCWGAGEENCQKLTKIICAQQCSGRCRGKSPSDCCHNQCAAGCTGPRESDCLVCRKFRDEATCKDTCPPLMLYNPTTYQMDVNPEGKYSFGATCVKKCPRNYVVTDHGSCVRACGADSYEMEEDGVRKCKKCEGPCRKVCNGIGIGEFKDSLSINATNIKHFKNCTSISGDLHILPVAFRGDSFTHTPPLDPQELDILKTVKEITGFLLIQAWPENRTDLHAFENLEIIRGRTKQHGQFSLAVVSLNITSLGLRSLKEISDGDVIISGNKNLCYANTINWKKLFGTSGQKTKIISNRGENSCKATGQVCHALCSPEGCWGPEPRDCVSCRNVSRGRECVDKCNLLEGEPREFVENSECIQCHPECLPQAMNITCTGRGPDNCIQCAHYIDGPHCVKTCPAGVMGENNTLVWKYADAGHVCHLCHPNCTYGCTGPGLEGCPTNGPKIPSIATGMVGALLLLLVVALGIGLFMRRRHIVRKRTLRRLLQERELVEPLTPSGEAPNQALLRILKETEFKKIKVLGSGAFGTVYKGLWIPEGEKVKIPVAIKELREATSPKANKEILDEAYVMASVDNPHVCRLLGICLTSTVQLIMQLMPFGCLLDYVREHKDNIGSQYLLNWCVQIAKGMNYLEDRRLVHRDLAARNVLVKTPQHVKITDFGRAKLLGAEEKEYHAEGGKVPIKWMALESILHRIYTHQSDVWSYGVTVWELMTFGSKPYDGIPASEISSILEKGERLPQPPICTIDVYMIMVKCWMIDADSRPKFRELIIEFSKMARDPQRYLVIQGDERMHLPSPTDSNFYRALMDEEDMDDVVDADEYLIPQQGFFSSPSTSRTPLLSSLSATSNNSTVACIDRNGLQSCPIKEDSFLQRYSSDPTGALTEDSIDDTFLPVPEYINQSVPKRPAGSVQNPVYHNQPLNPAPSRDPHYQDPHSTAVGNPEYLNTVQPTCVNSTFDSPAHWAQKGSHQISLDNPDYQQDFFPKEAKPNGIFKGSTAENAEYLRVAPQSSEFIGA
Sequence (P40337 whole entry, stated change not applied): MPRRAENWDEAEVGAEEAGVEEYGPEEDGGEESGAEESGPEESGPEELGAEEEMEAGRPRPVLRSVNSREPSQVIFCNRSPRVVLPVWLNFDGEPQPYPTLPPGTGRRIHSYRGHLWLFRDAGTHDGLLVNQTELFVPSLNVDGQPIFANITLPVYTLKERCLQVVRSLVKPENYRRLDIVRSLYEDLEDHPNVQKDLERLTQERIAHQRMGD

COc1cc(N2CCN(C)CC2)c(NC(=O)/C(C#N)=C/C(C)(C)NC(=O)CCCCCC(=O)N[C@H](C(=O)N2C[C@H](O)C[C@H]2C(=O)NCc2ccc(-c3scnc3C)cc2)C(C)(C)C)cc1Nc1nccc(-c2cn(C)c3ccccc23)n1
> 10 µM
COc1cc(N2CCN(CC(=O)NCCCCCCC(=O)N[C@H](C(=O)N3C[C@H](O)C[C@H]3C(=O)NCc3ccc(-c4scnc4C)cc3)C(C)(C)C)CC2)c(NC(=O)/C(C#N)=C/c2ccncc2)cc1Nc1nccc(-c2cn(C)c3ccccc23)n1
> 10 µM

Let us examine a further case.
stdin: So what does the record say about IC50 for COc1cc(N2CCN(CC(=O)NCCCCCCC(=O)N[C@H](C(=O)N3C[C@H](O)C[C@H]3C(=O)NCc3ccc(-c4scnc4C)cc3)C(C)(C)C)CC2)c(NC(=O)/C(C#N)=C/C2CC2)cc1Nc1nccc(-c2cn(C)c3ccccc23)n1 ?
stdout: > 10 µM
